Values from the METLIN SMRT retention time set (Domingo-Almenara et al. 2019)

experiment: gradient 5% acetonitrile 3 min, to 50% in 2 min, to 85% in 15 min, held 3 min, 100 µL/min; conditions: column: Zorbax Extend-C18 2.1 x 50 mm; eluents: water / acetonitrile, 0.1% formic acid
Quantity measured: RP-LC retention time (s)

* COc1ccc(C(=O)N2CCC3(C2)C(=O)N(C)c2ccccc23)cc1 (stereo not given) | 743
* COc1cccc(NC(=O)CC(=O)Nc2ccc3nc4n(c(=O)c3c2)CCCCC4)c1 | 1210
* COC(=O)Cc1c(C(=O)OC)nnn1-c1ccc(OC)cc1 | 862
* CN(C)S(=O)(=O)N1CCC(c2nnc(C(F)(F)F)o2)CC1 | 758
* COc1ccc(N2CCN(C(=O)c3cn4c(n3)CCCC4)CC2)cc1 | 574
* O=C(NCCc1cccs1)C1CCN(c2cnn(Cc3ccccc3)c(=O)c2)CC1 | 765
* Cc1nc(-c2cc(S(=O)(=O)NCCN3CCC(C)CC3)c(C)s2)sc1C | 718
* CCOc1ccc(CNc2ccc3[nH]c(=O)[nH]c3c2)cc1 | 605
* CCOC(=O)N1CCN(C(=O)Cn2nc(-c3ccccc3)cc(N)c2=O)CC1 | 673
* COc1ccccc1N1CCN(C(=O)c2cn(-c3cc(N4CCCCC4)ncn3)cn2)CC1 | 856

---

Catalogue of compounds with associated RP-LC retention time
experiment: gradient 5% acetonitrile 3 min, to 50% in 2 min, to 85% in 15 min, held 3 min, 100 µL/min; details: column: Zorbax Extend-C18 2.1 x 50 mm; eluents: water / acetonitrile, 0.1% formic acid
Quantity measured: RP-LC retention time (s)

- CCn1ncc(NC(=O)c2ccccc2F)c(N2CCOCC2)c1=O: 842
- CCn1cc(-c2nc(CC(=O)Nc3ccc(OC)c(F)c3)cs2)c2cccnc21: 884
- O=C1NC2(CCN(C(=O)Nc3ccccc3Cl)CC2)N=C1c1ccccc1: 800
- COc1ccccc1-c1noc(Cn2c(=O)n(Cc3ccc(C)cc3)c(=O)c3sccc32)n1: 1100
- CCOc1ccc(-c2csc(Cc3nc(-c4ccc(Cl)cc4)no3)n2)cc1: 1360
- Cc1nc(-c2csc(S(=O)(=O)N3CCC(C(=O)NCc4cccs4)CC3)c2)no1: 823
- CCCCN(C)CCNC(=O)c1cc2cc3ccc(OC)cc3nc2o1: 641
- O=C(CCNc1cnc2cnccn12)NCc1cccc(Cl)c1: 590
- Cc1c(CN2CC(F)(F)C[C@H]2COc2ccncc2)cnn1C: 502
- O=C1C2N=NN(Cc3nc(-c4ccc(Br)cc4)no3)C2C(=O)N1c1ccccc1 (stereo not given): 1030
- CCn1c(=O)c2ccccc2n(Cc2nc(-c3ccccc3OC)no2)c1=O: 909
- O=C(NC1CCN(c2ncnc3c2CCC3)C1)c1ccsc1 (stereo not given): 580
- CCNS(=O)(=O)c1ccc(Cl)c(-c2nnc(-c3ccccc3)o2)c1: 919
- CN(CC1(C)CCOCC1)S(=O)(=O)c1ccc(C(F)(F)F)cc1: 997
- O=C(CCCc1ccccc1)N1CCCC1c1nc(-c2ccccc2)no1 (stereo not given): 694
- Cn1cc(-c2cc3n(n2)CCC(=O)N3CC(=O)NC2CCCc3ccccc32)c2ccccc21 (stereo not given): 882
- CCOc1ncccc1C(=O)Nc1c(C)nc2sc(C)c(C)n2c1=O: 723
- Cc1nc(-c2csc(S(=O)(=O)N3CCC(C(=O)Nc4ccc(F)cc4)CC3)c2)no1: 916
- O=C(c1[nH]nc2c1COc1ccccc1-2)N1CC(c2noc(COc3ccc(F)cc3)n2)C1: 943
- CCC1Oc2ccc(S(=O)(=O)N3CCC(C(=O)Nc4cccc(Cl)c4)CC3)cc2NC1=O (stereo not given): 892

---

List of RP-LC retention time values.
experiment: gradient 5% acetonitrile 3 min, to 50% in 2 min, to 85% in 15 min, held 3 min, 100 µL/min; settings: column: Zorbax Extend-C18 2.1 x 50 mm; eluents: water / acetonitrile, 0.1% formic acid
Quantity measured: RP-LC retention time (s)

• CC(CCc1ccccc1)NC(=O)c1cc2sc(Cl)cc2n1C (centres undefined) = 1170
• CCCn1c(C)cnc1C1CN(S(=O)(=O)c2ccc(Cl)c(C)c2)C1 = 732
• CC(C)(C)CC(=O)N1CCN(c2nc(CN3CCOCC3)cs2)CC1 = 611
• COCCN(CCOC)Cc1c(C)[nH]c2c(C)c(C)ccc2c1=O = 605
• CCS(=O)(=O)Nc1ccc(Nc2c3ccccc3nc3ccccc23)c(OC)c1 = 649
• CCOC(=O)C1=C(CN2CCN(C(C)CC)CC2)NC(=O)NC1c1ccc(OC(C)C)cc1 (centres undefined) = 668
• COC1CN(c2cccc(F)c2)C12CCN(S(=O)(=O)c1cccc(F)c1)CC2 (centres undefined) = 1200
• CSc1cccc(NC(=O)Cn2c(=O)n(-c3cccc(C)c3)c(=O)c3c2cc(C)n3C)c1 = 920
• COc1cc(C(=O)N2CCN(c3cc(N(C)C)nc(C)n3)CC2)cc(OC)c1OC = 599

---

assay: gradient 5% acetonitrile 3 min, to 50% in 2 min, to 85% in 15 min, held 3 min, 100 µL/min; conditions: column: Zorbax Extend-C18 2.1 x 50 mm; eluents: water / acetonitrile, 0.1% formic acid
Quantity measured: RP-LC retention time (s)

* COc1ccccc1C1(CNC(=O)c2ccco2)CCOCC1 | 709
* O=C(NC1CCCC1)c1cccnc1N1CCOCC1 | 637
* Cc1oc(-c2[nH]ncc2C(=O)N(C)C)cc1S(=O)(=O)Nc1cccc(F)c1 | 668
* O=C(OCc1cccnc1)c1cn(-c2cccc(Cl)c2)c(=O)c2ccccc12 | 813
* Clc1cccc(Cc2nc(-c3ccc(-n4ccnc4)nc3)no2)c1 | 764
* O=C(O)CNC(=O)C1CCCN(S(=O)(=O)c2ccc(F)cc2)C1 (centres undefined) | 634
* O=C(c1ccc(Cl)cc1)N1CCc2sc(C(=O)N3CCCC3)cc2C1 | 792
* CCc1nnc2nc(N3CCN(C(=O)COc4ccc(OC)cc4)CC3)cc(C)n12 | 613
* CCn1cc(CCN2CCN(C(=O)C3CCCC3)CC2)c2cccnc21 | 597
* COC(=O)c1c(NCc2cccs2)c2cccc(Cl)c2[nH]c1=O | 764
* Cc1nc(-c2cccs2)sc1C(=O)NCCn1nc(-n2ccnc2C)ccc1=O | 564
* Cc1cc(NC(=O)CSc2nnc(NC(=O)c3ccc4c(c3)OCO4)s2)no1 | 727
* O=C(NCc1ccco1)C1CCN(c2cnc3nccnc3c2)CC1 | 629
* Cc1sc(NC(=O)C2CCN(S(=O)(=O)c3cccs3)CC2)c(C(N)=O)c1C | 769
* O=C(NCc1cc(F)ccc1F)c1ccc2ncnc(N3CCCCC3)c2c1 | 671
* COc1ccc(NC(=O)N2CCC(n3cnc4cccnc43)CC2)c(OC)c1 | 633
* CNC(=O)[C@@H]1C[C@@H](O)CN1C1CCN(C(=O)c2cc(C)oc2C)CC1 | 613
* CN(C)c1ccc(C(=O)N2CCN(c3cc(-c4ccccc4)[nH]n3)CC2)cc1 | 757
* CCCNC(=O)c1cn(-c2ccc(-c3nc(C4CC4)no3)cn2)cn1 | 815
* Cc1ccc(CNC(=O)Cn2c(N3CCCC3)nc(C)cc2=O)cc1 | 618
* COc1ccc(-c2cc(C(=O)Nc3ccc(F)cc3)nn2C2CCS(=O)(=O)C2)cc1 (centres undefined) | 930
* CCN(CC)CCCNC(=O)c1cccn1-c1nnc(N2CCCC2)s1 | 562
* O=C(Cn1nc(N2CCCCCC2)c2ccccc2c1=O)Nc1cccc(Cl)c1 | 1180
* CC(CCNC(=O)C(C)n1c2ccccc2c2cnn(C)c(=O)c21)N1CCCC1 (centres undefined) | 612
* CC(C)n1nc(CNC(=O)c2ccco2)c2ccccc21 | 788
* COc1ccccc1NC(=O)c1oc2ccccc2c1NC(=O)c1c(F)cccc1Cl | 1180
* Cc1ccc(CNC(=O)CCCN2C(=O)CCn3nc(-c4cccn4C)cc32)cc1 | 795
* Cc1cccc(NC(=O)Cn2nc3c(Oc4cc(C)cc(C)c4)nccn3c2=O)c1 | 934
* CCC1CN2C=NC(N3CCN(C(=O)NCc4cccc(OC)c4)CC3)=CC2=N1 (centres undefined) | 614
* O=C(NC1CC1)c1ccc(OCC2CCN(C(=O)c3ccc(F)c(Cl)c3)CC2)cc1 | 870
* CCCc1noc(-c2cccnc2N2CCCN(Cc3ccc(Cl)cc3)CC2)n1 | 754
* COc1ccccc1-c1noc(C2CCCN2C(=O)NC2CCCCC2)n1 (centres undefined) | 858
* Clc1cccc(-n2cc(-c3noc(-c4ccc5c(c4)OCO5)n3)nn2)c1 | 1100
* O=C(N[C@H]1C[C@@H]2C[C@H]1CN2S(=O)(=O)c1cccnc1)c1ccccc1 | 697
* Cc1cc(C)c(CNC(=O)c2nnc(-c3ccc(S(=O)(=O)N(C)C)cc3)o2)c(C)c1 | 1010
* CCOC(=O)CCNC(=O)N1c2ccccc2CC1c1nc(C(C)C)no1 (centres undefined) | 609
* Cc1cc(Cl)ccc1S(=O)(=O)N1CCCC1c1nncn1-c1ccccc1 (centres undefined) | 845
* Cc1nccn1-c1cc(N2CCCCC2)nc2ccnn12 | 594
* CCOc1ccccc1CNC1CCN(c2ccc(C(=O)NC3CC3)cn2)C1 (centres undefined) | 579
